The measurements presented in this section are drawn from patent US10414788B2.

Let's look at some compounds and their measured melting point.

structure	melting point (°C)
CN(C)c1ncnc2c1c1ccsc1n2[C@@H]1O[C@H](CO)[C@@H](O)[C@H]1O	117
Nc1ncnc2c1c1ccsc1n2[C@@H]1O[C@H](CO)[C@@H](O)[C@H]1O	98

###

- Test system: cancer cell lines of various histogenetic origin
- experiment: In vitro cytotoxic test, summary over cancer cell lines
- Assay type: cell-based, human
- test settings: text summary of Table 4

structure	IC50 values (range in words)
Nc1ncnc2c1c1ccsc1n2[C@@H]1O[C@H](CO)[C@@H](O)[C@H]1O	micromolar range
OC[C@H]1O[C@@H](n2c3ncnc(-c4cc5ccccc5o4)c3c3ccsc32)[C@H](O)[C@@H]1O	micromolar range

###

- System: HCT116p53−/− (human colorectal cancer, mutant p53)
- experiment: MTT in vitro cytotoxic test, HCT116p53
- Format: cell-based
- test settings: HCT116p53−/− cells
- Text: MTT test was used for in vitro evaluation of antitumor activities of newly synthesized compounds on cell lines derived from normal tissues or tumors. […]
pIC50: −log10 of the molar value.
Let's look at some compounds and their measured pIC50.

structure	pIC50
OC[C@H]1O[C@@H](n2c3ncnc(-c4cc5ccccc5o4)c3c3ccsc32)[C@H](O)[C@@H]1O	4.30 to 4.60
COc1ncnc2c1c1ccsc1n2[C@@H]1O[C@H](CO)[C@@H](O)[C@H]1O	6.05 to 6.70
CSc1ncnc2c1c1ccsc1n2[C@@H]1O[C@H](CO)[C@@H](O)[C@H]1O	6.05 to 6.70
CN(C)c1ncnc2c1c1ccsc1n2[C@@H]1O[C@H](CO)[C@@H](O)[C@H]1O	4.30 to 4.60
Cc1ncnc2c1c1ccsc1n2[C@@H]1O[C@H](CO)[C@@H](O)[C@H]1O	6.05 to 6.70
OC[C@H]1O[C@@H](n2c3ncnc(-c4ccoc4)c3c3ccsc32)[C@H](O)[C@@H]1O	4.30 to 4.60
Nc1ncnc2c1c1ccsc1n2[C@@H]1O[C@H](CO)[C@@H](O)[C@H]1O	5.00 to 6.05
OC[C@H]1O[C@@H](n2c3ncnc(-c4ccco4)c3c3ccsc32)[C@H](O)[C@@H]1O	4.30 to 4.60

###

- System: U2OS (human bone osteosarcoma)
- experiment: MTT in vitro cytotoxic test, U2OS
- Type: cell-based
- test settings: U2OS cells
property label: IC50

structure	assay result
COc1ncnc2c1c1ccsc1n2[C@@H]1O[C@H](CO)[C@@H](O)[C@H]1O	0.01 to 0.2 µM
Cc1ncnc2c1c1ccsc1n2[C@@H]1O[C@H](CO)[C@@H](O)[C@H]1O	0.01 to 0.2 µM
CSc1ncnc2c1c1ccsc1n2[C@@H]1O[C@H](CO)[C@@H](O)[C@H]1O	0.01 to 0.2 µM
OC[C@H]1O[C@@H](n2c3ncnc(-c4cc5ccccc5o4)c3c3ccsc32)[C@H](O)[C@@H]1O	25 to 50 µM
OC[C@H]1O[C@@H](n2c3ncnc(-c4ccoc4)c3c3ccsc32)[C@H](O)[C@@H]1O	25 to 50 µM
CN(C)c1ncnc2c1c1ccsc1n2[C@@H]1O[C@H](CO)[C@@H](O)[C@H]1O	25 to 50 µM
OC[C@H]1O[C@@H](n2c3ncnc(-c4ccco4)c3c3ccsc32)[C@H](O)[C@@H]1O	25 to 50 µM
Nc1ncnc2c1c1ccsc1n2[C@@H]1O[C@H](CO)[C@@H](O)[C@H]1O	0.2 to 0.9 µM

###

- System: A549 (human lung adenocarcinoma)
- experiment: MTT in vitro cytotoxic test, A549
- Assay type: cell-based
- test settings: A549 cells
pIC50: −log10 of the molar value.

structure	pIC50
OC[C@H]1O[C@@H](n2c3ncnc(-c4ccoc4)c3c3ccsc32)[C@H](O)[C@@H]1O	4.30 to 4.60
COc1ncnc2c1c1ccsc1n2[C@@H]1O[C@H](CO)[C@@H](O)[C@H]1O	5.00 to 6.05
OC[C@H]1O[C@@H](n2c3ncnc(-c4cc5ccccc5o4)c3c3ccsc32)[C@H](O)[C@@H]1O	4.30 to 4.60
Cc1ncnc2c1c1ccsc1n2[C@@H]1O[C@H](CO)[C@@H](O)[C@H]1O	6.05 to 6.70
CN(C)c1ncnc2c1c1ccsc1n2[C@@H]1O[C@H](CO)[C@@H](O)[C@H]1O	4.30 to 4.60
OC[C@H]1O[C@@H](n2c3ncnc(-c4ccco4)c3c3ccsc32)[C@H](O)[C@@H]1O	4.30 to 4.60
Nc1ncnc2c1c1ccsc1n2[C@@H]1O[C@H](CO)[C@@H](O)[C@H]1O	4.30 to 4.60
CSc1ncnc2c1c1ccsc1n2[C@@H]1O[C@H](CO)[C@@H](O)[C@H]1O	6.05 to 6.70

###

Let's look at some compounds and their measured melting point.
property label: melting point

compound	property label	assay result
COc1ncnc2c1c1ccsc1n2[C@@H]1O[C@H](CO)[C@@H](O)[C@H]1O [Compound 1g]	melting point	159 to 160 °C
Cc1ncnc2c1c1ccsc1n2[C@@H]1O[C@H](CO)[C@@H](O)[C@H]1O [Compound 1d]	melting point	126 to 128 °C
CSc1ncnc2c1c1ccsc1n2[C@@H]1O[C@H](CO)[C@@H](O)[C@H]1O [Compound 1h]	melting point	148 to 152 °C
